Let's go through some IC50 measurements on α-glucosidase (Saccharomyces cerevisiae, UniProt P53341) together.
Sequence (P53341 whole entry): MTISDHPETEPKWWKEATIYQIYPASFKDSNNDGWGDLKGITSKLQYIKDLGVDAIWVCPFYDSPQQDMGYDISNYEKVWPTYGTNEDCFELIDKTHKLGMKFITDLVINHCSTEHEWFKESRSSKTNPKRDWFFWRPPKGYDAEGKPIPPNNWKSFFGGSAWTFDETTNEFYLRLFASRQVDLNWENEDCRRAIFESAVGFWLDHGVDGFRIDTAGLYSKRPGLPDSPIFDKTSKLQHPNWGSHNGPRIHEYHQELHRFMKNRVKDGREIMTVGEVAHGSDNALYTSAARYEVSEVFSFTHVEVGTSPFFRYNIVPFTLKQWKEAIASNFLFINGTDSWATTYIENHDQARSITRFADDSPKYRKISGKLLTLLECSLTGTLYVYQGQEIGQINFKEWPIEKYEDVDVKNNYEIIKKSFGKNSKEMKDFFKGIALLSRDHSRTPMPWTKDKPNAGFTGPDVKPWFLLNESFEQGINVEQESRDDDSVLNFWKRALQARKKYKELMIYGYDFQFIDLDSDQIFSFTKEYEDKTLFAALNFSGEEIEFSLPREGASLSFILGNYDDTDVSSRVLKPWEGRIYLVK
Numbers only, in µM.

Query smiles	Quantitative readout
O=c1cc(-c2ccc(O)c(O)c2)oc2cc(O)cc(O)c12	22.8

Which IC50 is listed for COc1c(-c2ccc(O)c(O)c2)oc2cc(O)cc(O)c2c1=O ?
126
